target: Metabotropic glutamate receptor 8 (Rattus norvegicus) (UniProt P70579); experiment: mGluR8 Gi/Go-coupled signaling modulation – cell-based, rat, thallium flux, HTS, primary screen (AID 488969); conditions: HEK293 rat mGluR8, GIRK thallium flux, FluoZin2; at 10 µM; stronger effect = higher value; submaximal glutamate (EC20) added with thallium
Sequence (P70579 whole entry, looked up): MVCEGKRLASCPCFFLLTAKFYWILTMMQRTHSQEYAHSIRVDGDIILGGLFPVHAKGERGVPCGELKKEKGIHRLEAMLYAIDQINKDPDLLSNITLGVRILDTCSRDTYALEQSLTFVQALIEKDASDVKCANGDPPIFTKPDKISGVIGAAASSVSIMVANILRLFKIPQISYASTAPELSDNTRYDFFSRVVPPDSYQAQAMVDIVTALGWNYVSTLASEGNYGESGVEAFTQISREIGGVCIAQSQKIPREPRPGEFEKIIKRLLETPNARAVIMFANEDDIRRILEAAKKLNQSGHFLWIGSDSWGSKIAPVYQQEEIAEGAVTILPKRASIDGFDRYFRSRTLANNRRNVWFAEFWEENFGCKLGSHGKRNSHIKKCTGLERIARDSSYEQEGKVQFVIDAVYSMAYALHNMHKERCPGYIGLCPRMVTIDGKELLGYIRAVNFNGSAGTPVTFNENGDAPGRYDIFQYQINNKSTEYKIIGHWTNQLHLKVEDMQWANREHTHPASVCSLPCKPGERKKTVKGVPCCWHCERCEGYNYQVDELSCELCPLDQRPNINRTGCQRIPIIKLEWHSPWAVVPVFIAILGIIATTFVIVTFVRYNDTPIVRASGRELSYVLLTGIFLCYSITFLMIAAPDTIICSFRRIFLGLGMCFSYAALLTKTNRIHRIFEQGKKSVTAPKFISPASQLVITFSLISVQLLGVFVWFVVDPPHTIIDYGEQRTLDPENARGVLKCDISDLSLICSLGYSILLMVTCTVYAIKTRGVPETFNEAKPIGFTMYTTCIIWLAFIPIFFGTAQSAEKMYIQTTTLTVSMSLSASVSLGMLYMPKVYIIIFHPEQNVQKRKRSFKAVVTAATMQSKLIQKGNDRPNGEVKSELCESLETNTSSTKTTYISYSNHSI
The full ranking holds about 110,000 compounds; the median of “z-score” is about -0.1, and the highest 2% start at about 2. The full list was thinned out, with the highest values kept by preference.
Classify as follows. Reported z-score greater than or equal to 0.5: condition met. Reported z-score below: condition not met.

O=c1c2ccccc2nc(-c2cccc(Cl)c2)n1O: condition met
COCCCNC(=S)N1CCN(C(=O)c2ccco2)CC1: condition not met
COc1ccc(-c2nsc(SCC(=O)Nc3ccc4c(c3)OCO4)n2)cc1: condition not met
CN(C)CC(O)COc1ccc(-c2ccc(C#N)cc2)cc1 (centres undefined): condition met
CCCCOC(=O)CSc1n[nH]c(=O)[nH]c1=O: condition not met

Ask: Check the entry O=C(c1ccco1)N1CCCN(C(=O)c2ccco2)CC1 : does z-score equal or exceed 0.5?
Reply: condition not met

Ask: Now try O=C(NCC1CCCO1)C(c1ccc(F)cc1)N(Cc1ccc(F)cc1)C(=O)Cn1nnc(-c2cccs2)n1 (centres undefined) .
Reply: condition met

Ask: # repeat for CCOC(=O)N1CCN(C(=O)CN(C2CCCCC2)S(=O)(=O)c2ccc(F)cc2)CC1
Reply: condition not met

Ask: Also need Nc1nc(SCC(=O)N2CCc3ccccc32)[nH]c(=O)c1-c1ccccc1 , thanks.
Reply: condition not met

---

molecular target: Metabotropic glutamate receptor 8 (Rattus norvegicus); experiment: mGluR8 Gi/Go-coupled signaling modulation – cell-based, rat, thallium flux, HTS, primary screen (AID 488969); conditions: HEK293 rat mGluR8, GIRK (G protein-gated inwardly rectifying potassium channel) thallium flux, FluoZin2; at 10 µM; stronger effect = higher value; submaximal glutamate (EC20) added with thallium
Whole data set: some 110,000 compounds, median “z-score” near -0.1, cut for the highest 2% near 2. Many of the other results were omitted from the sample, so the highest values are more common in it than they were.
Please mark t if the recorded z-score is equal to or greater than -0.09, and f if it falls below.

Cn1c(=O)c2c(ncn2CC(=O)N/N=C/c2ccc(Br)s2)n(C)c1=O: t
CCOC(=O)Cc1csc(NC(=O)c2cccc(OC)c2)n1: t
Cc1nn2c(CN(C(=O)COc3ccccc3)c3ccccc3)nnc2c2ccccc12: f
O=C(CSc1ncnc2c1cnn2CCc1ccccc1)Nc1cccc(C(F)(F)F)c1: f
O=C(NCc1cccnc1)c1ccc2c(=O)n(CCCN3CCCC3=O)c(=S)[nH]c2c1: f
O=C(NCCN1CCCC1)c1ccc(CS(=O)(=O)c2c(Cl)cccc2Cl)o1: t
Cc1cc(NC(=O)CSc2nc(CC(C)(C)C)nc3c2c(=O)n(C)c(=O)n3C)no1: t
CCCSc1nc2sc3c(c2c(=O)[nH]1)CCN(Cc1ccccc1)C3: t
NC(=O)C1CCCN(C(=O)Nc2cccc3ccccc23)C1 (stereo not drawn): t
O=C(NCCCN1CCCCC1)c1ccc2c(=O)n(CCc3ccccc3)c(=O)[nH]c2c1: t

Ask: Answer whether z-score of O=C(NCc1ccccc1)c1ccc2c(=O)n(CCCN3CCCC3=O)c(=S)[nH]c2c1 is greater than or equal to -0.09.
Reply: t

Ask: And what about the compound CC1CCCCN1CCCNC(=O)c1ccc2c(=O)n(CCc3ccccc3)c(=O)[nH]c2c1 (stereo not drawn) ?
Reply: t

Ask: Entry to check: CCc1nc2ccccc2n1Cc1ccccc1OC
Reply: f

Ask: Please give the result for CSc1nc(-c2ccccc2)nc(N)c1C(C)=O too.
Reply: t

Ask: Again, but for CCc1cc(C(=O)NCCN(C)C)cs1
Reply: t

Ask: Field entry: C=CCNC(=O)C1CC(=O)N(c2ccc(OCC(=O)Nc3ccccc3)cc2)C1 (stereo not drawn)
Reply: t
